Source listed as ChEMBL document CHEMBL1155223.

Molecular target: Adenosine receptor A3 (Homo sapiens) (UniProt P0DMS8)
Sequence (whole entry): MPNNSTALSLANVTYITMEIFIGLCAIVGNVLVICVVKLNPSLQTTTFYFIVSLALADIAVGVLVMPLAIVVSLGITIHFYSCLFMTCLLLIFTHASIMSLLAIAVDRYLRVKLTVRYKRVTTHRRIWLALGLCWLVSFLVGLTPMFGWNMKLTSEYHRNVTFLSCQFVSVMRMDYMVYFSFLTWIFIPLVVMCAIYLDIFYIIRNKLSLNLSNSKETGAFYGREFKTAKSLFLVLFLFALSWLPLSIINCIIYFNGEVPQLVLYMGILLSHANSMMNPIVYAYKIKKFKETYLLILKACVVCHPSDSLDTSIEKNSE
Assay: Inhibition of [125I]AB-MECA binding to human cloned adenosine A3 receptor expressed in CHO cells at 1 uM after 120 mins by scintillation counting
Assay type: cell-based
Reported inhibition by item:
// units = %; emit number, no label

- smiles.data: "Nc1nc(NCCc2ccc(O)cc2)nc2nc(-c3ccco3)nn12"
  result.unit: "%"
  inhibition: 5
- smiles.data: "O=c1[nH]c(-c2ccccc2)nc2cn(-c3ccccc3)nc12"
  result.unit: "%"
  inhibition: 10
- smiles.data: "COc1ccc(-n2cc3nc(-c4ccccc4)[nH]c(=O)c3n2)cc1"
  result.unit: "%"
  inhibition: 16

For O=c1[nH]c(=O)c2nn(-c3ccccc3)cc2[nH]1 , what is its reported inhibition?
12
